- System: MOLT-4 leukemia
- METHOD SUMMARY: NCI-60 one-dose screen, 48 h (100 = growth as untreated, 0 = no growth, -100 = all killed)
- TEST SETTINGS: 10 µM unless noted
- Protocol: Growth inhibition of the MOLT-4 human tumor cell line is measured as a screen for anti-cancer activity. Cells are grown in 96 well plates and exposed to the test compound for 48 hours. Compounds are tested at a single concentration, which is 10^-5 M for most compounds. The reported endpoint is percent growth (GI% or GIPRCNT), where numbers from 0 - 100% represent growth inhibition, and numbers from -100% - 0 represent cell death. For example, a value of 40 represents 60% growth inhibition. […]
The panel holds about 83,000 compounds, 20% with a hit somewhere; the sample as a whole holds those more often.
Record 1 whenever growth is at 20% or higher; record 0 when lower.

Qu. Check the entry c1ccc2cc3c(Nc4ccc(N5CCOCC5)cc4)ccnc3cc2c1 : does growth equal or exceed 20%?
Ans. 1

Qu. Check the entry O=C(/C=C/c1ccc(C(F)(F)F)cc1)c1ccc(Nc2nc(NCCO)nc(Nc3ccc(Cl)cc3)n2)cc1 : does growth equal or exceed 20%?
Ans. 1

Qu. Check the entry COc1ccc(CSc2nnc(SCC(=O)Nc3ccc(Cl)cc3)s2)cc1 : does growth equal or exceed 20%?
Ans. 1

Qu. Check the entry COc1cc2c(cc1OC)C(=O)C(CC1CCN(C(=O)Nc3ccc(C)cc3)CC1)C2 (stereo unspecified) : does growth equal or exceed 20%?
Ans. 1

Qu. Check the entry CC(C)CCOc1ccc(-c2n[nH]c(C(F)(F)F)c2-c2cncc(C#N)c2)c(O)c1 : does growth equal or exceed 20%?
Ans. 1

Qu. Check the entry Clc1ccc(Nc2scc3[n+]2CCC3)cc1 : does growth equal or exceed 20%?
Ans. 1

Qu. Check the entry O=S(=O)(c1ccccc1)n1cc2c(c1-c1ccccc1)CCc1sc(Nc3ccccc3)nc1-2 : does growth equal or exceed 20%?
Ans. 1

Qu. Check the entry CCOc1ccc2c(c1)CN(Cc1ccc(Cl)cc1)CO2 : does growth equal or exceed 20%?
Ans. 1

Qu. Check the entry Cc1cccc(NC(=O)c2sc3nc4c(cc3c2N)CCCC4)c1C : does growth equal or exceed 20%?
Ans. 0

Qu. Check the entry S=C1CCCC(=S)N1 : does growth equal or exceed 20%?
Ans. 1

Qu. Check the entry O=C(Nc1ccc(F)cc1F)c1cc(I)ccc1O : does growth equal or exceed 20%?
Ans. 0

###

- Test system: NCI-H460 lung
- METHOD SUMMARY: NCI-60 one-dose screen, 48 h (100 = growth as untreated, 0 = no growth, -100 = all killed)
- TEST SETTINGS: 10 µM unless noted
Compounds without any hit were thinned out: in the full panel of roughly 83,000, 20% have a hit.
Record Met whenever growth is at 20% or higher; record Not met when lower.

Qu. Check the entry CCN(CC)CCNC(=O)C(Cl)=C1C(Cl)=C(Cl)C(Cl)=C1Cl : does growth equal or exceed 20%?
Ans. Not met

Qu. Check the entry O=C1OC(c2ccccc2)(c2ccccc2)c2ccsc21 : does growth equal or exceed 20%?
Ans. Met

Qu. Check the entry CCOC(=O)c1cc2c(n1Cc1cc(OC)c(OC)c(OC)c1)-c1oncc1CCC2 : does growth equal or exceed 20%?
Ans. Not met

Qu. Check the entry Cc1ccc(C(=O)c2oc3ccc4c(C)cc(=O)oc4c3c2C)cc1 : does growth equal or exceed 20%?
Ans. Not met

Qu. Check the entry CC(=O)c1ccc(Cc2ccc(C(C)=O)s2)s1 : does growth equal or exceed 20%?
Ans. Met

Qu. Check the entry CCCCCCc1cc2cc(-c3csc(/C=C/c4ccccc4)n3)c(=O)oc2cc1O : does growth equal or exceed 20%?
Ans. Not met

Qu. Check the entry O=C(Nc1ccc(F)cc1F)c1cc(Cl)ccc1O : does growth equal or exceed 20%?
Ans. Not met

Qu. Check the entry O=C(N/N=C/c1ccccc1O)C(=O)Nc1ccc(F)cc1 : does growth equal or exceed 20%?
Ans. Met

Qu. Check the entry O=C(Nc1ccsc1C(=O)NC1CCCCC1)c1ccc(F)cc1 : does growth equal or exceed 20%?
Ans. Met

Qu. Check the entry O=C(Nc1ccc(Cl)cc1F)c1cc(I)ccc1O : does growth equal or exceed 20%?
Ans. Not met

Qu. Check the entry COc1cc(/C=C2\CCC/C(=C\c3cc(CN4CCCCC4)c(O)c(OC)c3)C2=O)cc(CN2CCCCC2)c1O : does growth equal or exceed 20%?
Ans. Met

Qu. Check the entry Nc1nc(-c2ccccc2Br)nn1-c1nc2ccccc2s1 : does growth equal or exceed 20%?
Ans. Met

Qu. Check the entry Cc1cc(OC(=O)c2ccc([N+](=O)[O-])cc2)nc2[nH]c(=O)sc12 : does growth equal or exceed 20%?
Ans. Met

Qu. Check the entry CN1C(=O)N(C)C2Nn3c(s/c(=C4\C(=O)N(CCc5ccccc5)c5ccccc54)c3=O)=NC21 (stereo not drawn) : does growth equal or exceed 20%?
Ans. Met

Qu. Check the entry Cn1cc(-c2ccc3ncc(-c4ccc(CC(=O)Nc5cc(C(C)(C)C)no5)cc4)nc3c2)cn1 : does growth equal or exceed 20%?
Ans. Met

Qu. Check the entry COc1ccc(OC)c(NC(=O)/C(C#N)=C/c2ccco2)c1 : does growth equal or exceed 20%?
Ans. Met

Qu. Check the entry COC(=O)/C(=C\c1c(C)[nH]c2ccccc12)S(=O)(=O)c1ccccc1 : does growth equal or exceed 20%?
Ans. Not met

Qu. Check the entry O=C(CN1C=NC2C(N3CCOCC3)=NC=NC21)c1ccc(Br)cc1 (stereo not drawn) : does growth equal or exceed 20%?
Ans. Met

Qu. Check the entry CC(C)(C)c1ccc(C2CC(=O)C3=C(C2)Nc2ccccc2N(C(=O)c2ccccc2Cl)C3c2ccc(F)cc2)cc1 (stereo not drawn) : does growth equal or exceed 20%?
Ans. Not met

Qu. Check the entry Nc1nonc1-n1nncc1-c1cccnc1 : does growth equal or exceed 20%?
Ans. Met

Qu. Check the entry COC(=O)c1c2c(c(C)[n+]([O-])c1C)C(=O)C(NCc1ccc(F)c(F)c1)=CC2=O : does growth equal or exceed 20%?
Ans. Not met

Qu. Check the entry CCCCOCc1cc(CN2CCN(C)CC2)c(O)c2ncccc12 : does growth equal or exceed 20%?
Ans. Met

Qu. Check the entry C=C(C)CCC(C)N1CCC(N2CCC(C(=O)NCCc3ccccc3)CC2)CC1 (stereo not drawn) : does growth equal or exceed 20%?
Ans. Met

Qu. Check the entry CCCC(=O)CC(C)=O.CCCC(=O)CC(C)=O.[Cu] : does growth equal or exceed 20%?
Ans. Met

Qu. Check the entry O=C(Nc1ccc(N2CCNCC2)cc1)c1[nH]ncc1Nc1cc(Oc2ccccc2)ncn1 : does growth equal or exceed 20%?
Ans. Not met

Qu. Check the entry Nc1ccccc1-c1ccc(-c2ccc(Cl)cc2)c2c1[nH]c1ccccc12 : does growth equal or exceed 20%?
Ans. Met

Qu. Check the entry COc1ccc(-c2nsc3c2NC(=O)CC3c2ccsc2)cc1 (stereo not drawn) : does growth equal or exceed 20%?
Ans. Not met

Qu. Check the entry CNCCNc1nc2ccccc2c2c(=O)c3cc(OC)ccc3sc12 : does growth equal or exceed 20%?
Ans. Not met

Qu. Check the entry O=c1oc2ccc(F)cc2c(=O)n1-c1ccc(I)cc1F : does growth equal or exceed 20%?
Ans. Not met

Qu. Check the entry O=C(CSc1nc2ccccc2c(=O)n1-c1ccccc1)Nc1ccc(C(=O)/C=C/c2ccc(Cl)cc2)cc1 : does growth equal or exceed 20%?
Ans. Met

Qu. Check the entry Brc1ccc(Nc2nc3ccccc3nc2Nc2ccc(Br)cc2)cc1 : does growth equal or exceed 20%?
Ans. Not met

Qu. Check the entry COc1cc(CNC(=O)c2ccsc2Nc2ccnc(C(F)(F)F)c2)ccc1O : does growth equal or exceed 20%?
Ans. Met

Qu. Check the entry CN1C(=O)N(C)C2C1NN=c1s/c(=C\c3c[nH]c4ccccc34)c(=O)n12 (stereo not drawn) : does growth equal or exceed 20%?
Ans. Not met

Qu. Check the entry O=c1oc2ccc(-c3ccc(F)cc3F)cc2c(=O)n1-c1cccc(C(F)(F)F)c1 : does growth equal or exceed 20%?
Ans. Not met

Qu. Check the entry CCOC(=O)c1ccc2[nH]c(-c3ccccc3)cc(=O)c2c1 : does growth equal or exceed 20%?
Ans. Met

Qu. Check the entry COc1c(B(O)O)cccc1-c1nc2ccc3[nH]ncc3c2c2c1C1CCC2C1 (stereo not drawn) : does growth equal or exceed 20%?
Ans. Met

Qu. Check the entry COc1ccc(C2C3=C(COC3=O)N(CCO)c3cc4c(cc32)CCC4)cc1OC (stereo not drawn) : does growth equal or exceed 20%?
Ans. Not met

Qu. Check the entry O=c1oc2ccc(Br)cc2c(=O)n1-c1ccc(I)cc1F : does growth equal or exceed 20%?
Ans. Not met

Qu. Check the entry COc1c2ccoc2c(/C=C/C=O)c2oc(-c3ccccc3)cc(=O)c12 : does growth equal or exceed 20%?
Ans. Met

Qu. Check the entry COc1cc2nc(-c3cccc4cccnc34)nc(NC3CCN(Cc4ccccc4)CC3)c2cc1OC : does growth equal or exceed 20%?
Ans. Not met

Qu. Check the entry COc1cc(/C=C/C(=O)c2c(C)nc3ccccc3c2/C=C/c2ccccc2)cc(OC)c1OC : does growth equal or exceed 20%?
Ans. Not met

Qu. Check the entry Clc1ccc(Nc2nnc(-c3ccc4c(c3)OCO4)o2)cc1 : does growth equal or exceed 20%?
Ans. Met

Qu. Check the entry O=C(Nc1ccc(F)cc1F)c1cc(Br)ccc1O : does growth equal or exceed 20%?
Ans. Not met
